TESTED ON: canine IL-4RA (construct not given) (canine)
ASSAY EXPLANATION: SPR, combinatorial Fab-SASA clone

# BINDER, kon [M⁻¹ s⁻¹]
data = [
    ("AHF21191 (Fab, V domains shown, not shown: small tags and cut ends) VH: EVQLVESGGDLVKPGGSLRLSCVASGFTFRDYAMTWVRQAPGKGLQWVSLINGSGGKTYYADAVKGRFTISRDNAKNTLYLQMNSLRAEDTAVYYCAVDRLTKTIRPQYYGLWHWGQGTLVTVSS VL: DIVMTQTPLSLSVSPGETASISCRSSQSLTYSIGYNYLDWYLQKPGQSPQGLIYLGSKRASGVPDRFSGSGSGTDFTLRISRVEANDTGVYYCMQGLQSPLGFGQGTKLEIKR", 259000),
    ("AHF21187 (Fab, V domains shown, not shown: small tags and cut ends) VH: EVQLVESGGDLVKPGGSLRLSCVASGFTFRDYAMTWVRQAPGKGLQWVSLINGSGGKTYYADAVKGRFTISRDNAKNTLYLQMNSLRAEDTAVYYCAVDRKTKTIRPQYYGLWVWGQGTLVTVSS VL: DIVMTQTPLSLSVSPGETASISCRSSQSLTYSIGYNYLDWYLQKPGQSPQGLIYLGHKRASGVPDRFSGSGSGTDFTLRISRVEANDTGVYYCMQGLQSPLGFGQGTKLEIKR", 172000),
    ("AHF21177 (Fab, V domains shown, not shown: small tags and cut ends) VH: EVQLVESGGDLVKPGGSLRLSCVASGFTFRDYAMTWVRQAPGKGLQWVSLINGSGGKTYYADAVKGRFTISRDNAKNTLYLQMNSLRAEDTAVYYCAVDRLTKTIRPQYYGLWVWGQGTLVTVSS VL: DIVMTQTPLSLSVSPGETASISCRSSQSLTYSIGYNYLDWYLQKPGQSPQGLIYLGSKRASGVPDRFSGSGSGTDFTLRISRVEANDTGVYYCMQGLQSPLGFGQGTKLEIKR", 170000),
]
